Values from the supplement of paper PMC11061612

# Tested on: NCI-H2170 (Squamous Cell Lung Carcinoma);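 also: after 72 h of two-drug dosing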
# run-description: Bliss excess, mean over the matrix (fraction); higher = more synergy
property-name: Bliss excess
Give bare numbers.

// below: answered molecules
molecule	Bliss excess
Cn1cnc2c(F)c(Nc3ccc(Br)cc3Cl)c(C(=O)NOCCO)cc21 [Selumetinib] + C[C@@H]1COCCN1C2=NC(=NC(=C2)C3(CC3)[S@](=N)(=O)C)C4=C5C=CNC5=NC=C4 [AZD6738] (first compound max 10 µM, 7x7, partner max 10 µM)	-0.0464
Cc1cc2ncnn2cc1Nc1ncc2c(n1)n(C1CCOCC1)c(=O)n2C [AZD7648] + C[C@@H]1COCCN1C2=NC(=NC(=C2)C3(CC3)[S@](=N)(=O)C)C4=C5C=CNC5=NC=C4 [AZD6738] (first compound max 10 µM, 7x7, partner max 10 µM)	-0.0153
NC1(C(=O)N[C@@H](CCO)c2ccc(Cl)cc2)CCN(c2ncnc3[nH]ccc23)CC1 [Capivasertib] + COc1nnc2ccc(N3CCC(c4ccc(OCCN5CCN(C)C(=O)[C@H]5C)cc4)CC3)nn12 [AZD5153] (first compound max 10 µM, 7x7, partner max 1 µM)	0.0383

Let's switch to this molecule now.
// assay NCI-H2170 (Squamous Cell Lung Carcinoma), entry CCN(CCO)CCCOc1ccc2c(Nc3cc(CC(=O)Nc4cccc(F)c4)[nH]n3)ncnc2c1 [AZD2811] + C[C@@H]1COCCN1C2=NC(=NC(=C2)C3(CC3)[S@](=N)(=O)C)C4=C5C=CNC5=NC=C4 [AZD6738] (first compound max 1 µM, 7x7, partner max 10 µM) , Bliss excess value = -0.0191

---

For each of the compounds below, state its combination Emax.
# System: L-363 (Plasma Cell Myeloma)
# run-description: combination Emax (second highest fraction inhibited in the dose matrix, 72 h); higher = more inhibition; extreme values may be limits of the assay
One number for each entry.

compound	combination Emax
C[C@@H](Nc1cc(F)cc(F)c1)c1cc(C(=O)N(C)C)cc2c(=O)cc(N3CCOCC3)oc12 [AZD8186] + C1CN(CCC1(C(=O)N[C@@H](CCO)C2=CC=C(C=C2)Cl)N)C3=NC=NC4=C3C=CN4 [AZD5363] (first compound max 10 µM, 7x7, partner max 10 µM)	0.318

Let's switch to this compound now.
Just so you know, measured combination Emax for COc1nnc2ccc(N3CCC(c4ccc(OCCN5CCN(C)C(=O)[C@H]5C)cc4)CC3)nn12 [AZD5153] + C[C@@H]1COCCN1C2=NC(=NC(=C2)C3(CC3)[S@](=N)(=O)C)C4=C5C=CNC5=NC=C4 [AZD6738] (first compound max 1 µM, 7x7, partner max 10 µM) came out at 0.849

---

For each of the compounds below, state its combination Emax.
# Tested on: TOV-21G (Ovarian Carcinoma)
# run-description: combination Emax (second highest fraction inhibited in the dose matrix, 72 h); higher = more inhibition; extreme values may be limits of the assay

// below: answered compounds
compound	combination Emax
Cc1c2c(nn1C)CSCc1cc(n(C)n1)CSc1cc(c3ccccc3c1)OCCCc1c(C(=O)O)n(C)c3c-2c(Cl)ccc13 [AZD5991] + C[C@@H](Nc1cc(F)cc(F)c1)c1cc(C(=O)N(C)C)cc2c(=O)cc(N3CCOCC3)oc12 [AZD8186] (first compound max 1 µM, 7x7, partner max 3 µM)	0.253
CCc1c2c(nc3ccc(O)cc13)-c1cc3c(c(=O)n1C2)COC(=O)[C@]3(O)CC [SN-38] + CN(C)CCCOc1ccc(-c2ccc3ncc4c(c3c2)n(C2CCOCC2)c(=O)n4C)cn1 [AZD0156] (first compound max 0.3 µM, 7x7, partner max 1 µM)	0.574
Cc1c2c(nn1C)CSCc1cc(n(C)n1)CSc1cc(c3ccccc3c1)OCCCc1c(C(=O)O)n(C)c3c-2c(Cl)ccc13 [AZD5991] + CN(C)CCCOc1ccc(-c2ccc3ncc4c(c3c2)n(C2CCOCC2)c(=O)n4C)cn1 [AZD0156] (first compound max 1 µM, 7x7, partner max 1 µM)	0.161
CC1(C)CCC(CN2CCN(c3ccc(C(=O)NS(=O)(=O)c4ccc(NCC5CCOCC5)c([N+](=O)[O-])c4)c(Oc4cnc5[nH]ccc5c4)c3)CC2)=C(c2ccc(Cl)cc2)C1 [Venetoclax] + Cn1cnc2c(F)c(Nc3ccc(Br)cc3Cl)c(C(=O)NOCCO)cc21 [Selumetinib] (first compound max 1 µM, 7x7, partner max 3 µM)	0.216
Cc1cc2ncnn2cc1Nc1ncc2c(n1)n(C1CCOCC1)c(=O)n2C [AZD7648] + C=CCn1c(=O)c2cnc(Nc3ccc(N4CCN(C)CC4)cc3)nc2n1-c1cccc(C(C)(C)O)n1 [AZD1775] (first compound max 10 µM, partner max 1 µM)	0.56
CS(=O)(=O)CCNCc1ccc(-c2ccc3ncnc(Nc4ccc(OCc5cccc(F)c5)c(Cl)c4)c3c2)o1 [Lapatinib] + C[C@@H](Oc1cc(-c2cnn(C3CCNCC3)c2)cnc1N)c1c(Cl)ccc(F)c1Cl [Crizotinib] (first compound max 10 µM, 7x7, partner max 10 µM)	0.953

Let's switch to this compound now.
Just so you know, measured combination Emax for CC(=O)c1c(C)c2cnc(Nc3ccc(N4CCNCC4)cn3)nc2n(C2CCCC2)c1=O [Palbociclib] + CN(CC[C@H](CSC1=CC=CC=C1)NC2=C(C=C(C=C2)S(=O)(=O)NC(=O)C3=CC=C(C=C3)N4CCC(CC4)[C@H](C5=CC=CC=C5C6=CC=C(C=C6)Cl)O)S(=O)(=O)C(F)(F)F)CCO [AZD4320] (first compound max 10 µM, 7x7, partner max 1 µM) came out at 0.626
